# Test system: GUMC-403
# ASSAY NAME: viability at highest tested concentration (max response) relative to DMSO (% of DMSO control); higher = less cytotoxic
# MEASUREMENT CONTEXT: library / dose series: MIPE library, 11-point 1:3 dilution; top concentration 92.2 µM; 48 h
Response field label: string, one of y (viability strictly below 100) or n.

• C=C1CCC2[C@](C)(CO)C(O)CC[C@]2(C)C1C/C=C1/C(=O)OCC1O (stereo not given in full) = n
• Cc1cc(Nc2cc(N3CCN(C)CC3)nc(/C=C/c3ccccc3)n2)n[nH]1 = y
• COC1=CC=CC=C1C2=CC=CC(=C2)C/3=C(O)/C4=CC(=C(Cl)C=C4NC3=O)C#N = n
• COc1cc(/C=C/C(=O)CC(=O)/C=C/c2ccc(O)c(OC)c2)ccc1O = y
• Cc1cn([C@H]2C=C[C@@H](CO)O2)c(=O)[nH]c1=O = y
• Nc1ccn([C@H]2CS[C@@H](CO)O2)c(=O)n1 = n
• Nc1cccc2c1CN([C@H]1CCC(=O)NC1=O)C2=O = n
• O=C(O)[C@H](Cc1c[nH]c2ccccc12)N1C(=O)c2ccccc2C1=O = n

====

# Test system: GUMC-403
# ASSAY NAME: viability at highest tested concentration (max response) relative to DMSO (% of DMSO control); higher = less cytotoxic
# MEASUREMENT CONTEXT: library / dose series: MIPE library, 11-point 1:3 dilution; top concentration 92.2 µM; 48 h
Response field label: string, one of t (viability strictly below 100) or f.

• C[C@H]1O[C@H](C[C@H](O)[C@@H]1O)O[C@H]2[C@@H](O)C[C@@H](O[C@@H]2C)O[C@H]3[C@@H](O)C[C@@H](O[C@@H]3C)O[C@H]4CC[C@@]5(C)[C@H](CC[C@@H]6[C@@H]5C[C@@H](O)[C@]7(C)[C@H](CC[C@]67O)C/8=C/C(=O)OC8)C4 = t
• C[C@@H]1CC[C@@]2(CC[C@]3(C)\C(=C/C[C@@H]4[C@@]5(C)CC[C@H](O)C(C)(C)[C@@H]5CC[C@@]34C)[C@@H]2[C@H]1C)C(O)=O = t
• CC(=O)Oc1ccccc1C(=O)Nc1ncc([N+](=O)[O-])s1 = t
• COc1cc2ncnc(Nc3ccc(F)c(Cl)c3)c2cc1OCCCN1CCOCC1 = t
• O=c1[nH]c(=O)n(C2CCCO2)cc1F (configuration not stated) = f
• CCN(CC)CCNC(=O)c1c(C)[nH]c(/C=C2\C(=O)Nc3ccc(F)cc32)c1C = t
• CNC[C@H](O)c1ccc(O)c(O)c1 = f
• C[C@@H](NC1=CC=CC=C1C(O)=O)C/2=C/C(=C\N3C(=O)/C=C(\N=C23)N4CCOCC4)C = t
• C[C@]12CCC(=O)C=C1CC[C@@H]1[C@@H]2CC[C@@]2(C)[C@H]1CC[C@]2(C)O = f
• CC1=C(/C=C/C(C)=C/C=C/C(C)=C/C(=O)Nc2ccc(O)cc2)C(C)(C)CCC1 = t
• CC(C)(C)c1[nH]cnc1/C=c1\[nH]c(=O)/c(=C/c2ccccc2)[nH]c1=O = t
• C[S+]([O-])c1ccc(-c2nc(-c3ccc(F)cc3)c(-c3ccncc3)[nH]2)cc1 (configuration not stated) = t
• Oc1cccc(-c2nc(N3CCOCC3)c3oc4ncccc4c3n2)c1 = t
• O=C(/C=C/c1cccc([S+](=O)([O-])Nc2ccccc2)c1)NO = t
• O=C(O)c1cc(O)c2c(c1)C(=O)c1cccc(O)c1C2=O = f

The reported measurements were obtained from the supplement of paper PMC6723410.
